Assay: Toxicity in 3 dpf zebra fish assessed as mortality at 6.25 ug/ml (reference value: 0%)
Set-up: species or system Danio rerio
Conditions: zebrafish, at 6.25 µg/mL, read-out: Activity
Readout Type: mortality at 6.25 ug/ml (%)
Only the number, expressed in %, is required.

Dear colleague, I am looking for the recorded mortality at 6.25 ug/ml of the following molecule: CCN(CCCCOc1ccc(-c2cc(=O)c3c(O)cc(OCCCCN(CC)Cc4ccccc4)cc3o2)cc1)Cc1ccccc1 100

---

Reported pIC50 values are given for each entry in this list.
Molecular target: Cholinesterase (Equus caballus)
Sequence (P81908 whole entry): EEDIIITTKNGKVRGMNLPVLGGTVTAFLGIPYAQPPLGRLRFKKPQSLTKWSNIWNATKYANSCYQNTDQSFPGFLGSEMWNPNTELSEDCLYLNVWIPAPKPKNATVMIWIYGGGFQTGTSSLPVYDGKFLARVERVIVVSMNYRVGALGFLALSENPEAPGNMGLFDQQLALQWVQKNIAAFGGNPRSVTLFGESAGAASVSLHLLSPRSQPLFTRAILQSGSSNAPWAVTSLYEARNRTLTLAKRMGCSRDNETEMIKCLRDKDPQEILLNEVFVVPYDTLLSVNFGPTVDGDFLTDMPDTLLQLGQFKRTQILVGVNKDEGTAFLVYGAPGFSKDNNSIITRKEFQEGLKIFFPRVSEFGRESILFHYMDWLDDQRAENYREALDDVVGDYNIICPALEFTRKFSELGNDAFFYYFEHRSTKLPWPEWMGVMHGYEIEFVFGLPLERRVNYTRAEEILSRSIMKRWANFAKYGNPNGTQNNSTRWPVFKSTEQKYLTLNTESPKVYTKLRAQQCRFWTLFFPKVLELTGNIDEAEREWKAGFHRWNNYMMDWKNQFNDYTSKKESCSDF
Assay: Inhibition of equine serum BChE by Ellman's method
Would you please state pIC50, meaning minus log10 of the concentration in mol/L, as a bare number?

1) O=c1cc(-c2ccc(OCCCCN3CCc4ccccc4C3)cc2)oc2cc(OCCCCN3CCc4ccccc4C3)cc(O)c12 : 4.76
2) O=C(/C=C/c1ccc(OCCCCN2CCC(Cc3ccccc3)CC2)cc1)c1c(O)cc(OCCCCN2CCC(Cc3ccccc3)CC2)cc1O : 4.34
3) O=c1c(-c2ccc(OCCCCN3CCCCC3)cc2)coc2cc(OCCCCN3CCCCC3)cc(O)c12 : 5.66

Would you kindly look at the next entry?
Dear colleague, I am looking for the recorded pIC50 of the following molecule: O=C(/C=C/c1ccc(OCCCCN2CCCC2)cc1)c1c(O)cc(OCCCCN2CCCC2)cc1O 5.09

---

Test: Cytotoxicity against rat PC-12 cells assessed as cell viability at 100 uM after 48 hrs by MTT assay relative to control
Assay type: cell-based
Details: read-out: Activity
Readout Type: viability at 48 h, 100 µM (%)
Only the number, expressed in %, is required.

Dear colleague, I am looking for the recorded viability at 48 h, 100 µM of the following molecule: CCN(CCCCOc1ccc(/C=C/C(=O)c2c(O)cc(OCCCCN(CC)Cc3ccccc3OC)cc2O)cc1)Cc1ccccc1OC 55.6

---

Biological target: Acetylcholinesterase (Homo sapiens, UniProt P22303)
Sequence (P22303 whole entry): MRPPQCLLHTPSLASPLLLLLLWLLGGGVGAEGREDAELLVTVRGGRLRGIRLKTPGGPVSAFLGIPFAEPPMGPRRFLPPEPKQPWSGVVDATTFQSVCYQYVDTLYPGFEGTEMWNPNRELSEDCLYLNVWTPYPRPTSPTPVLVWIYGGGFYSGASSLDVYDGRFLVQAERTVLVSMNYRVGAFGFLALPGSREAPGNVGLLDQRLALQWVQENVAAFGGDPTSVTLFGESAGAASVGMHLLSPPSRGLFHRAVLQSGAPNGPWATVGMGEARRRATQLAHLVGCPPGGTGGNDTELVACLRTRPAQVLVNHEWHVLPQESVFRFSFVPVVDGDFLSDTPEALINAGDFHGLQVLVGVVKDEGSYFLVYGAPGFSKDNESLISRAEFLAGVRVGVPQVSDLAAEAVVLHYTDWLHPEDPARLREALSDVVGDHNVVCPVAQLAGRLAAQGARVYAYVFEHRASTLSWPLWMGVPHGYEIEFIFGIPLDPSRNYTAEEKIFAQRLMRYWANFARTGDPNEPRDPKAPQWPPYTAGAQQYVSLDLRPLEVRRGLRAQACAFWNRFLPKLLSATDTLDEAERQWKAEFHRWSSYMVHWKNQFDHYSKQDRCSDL
Readout Type: pKi
Would you please state pKi, meaning minus log10 of the concentration in mol/L, as a bare number?

Dear colleague, I am looking for the recorded pKi of the following compound: CCN(CCCCOc1ccc(-c2cc(=O)c3c(O)cc(OCCCCN(CC)Cc4ccccc4)cc3o2)cc1)Cc1ccccc1 6.40

---

Assay: Selectivity index, ratio of IC50 for inhibition of equine serum BChE to IC50 for inhibition of electric eel AChE
Reported Ratio IC50 values are given for each entry in this list.
Number, no unit, nothing else.

1) O=C1CC(c2ccc(OCCCCN3CCC(Cc4ccccc4)CC3)cc2)Oc2cc(OCCCCN3CCC(Cc4ccccc4)CC3)cc(O)c21 (centres undefined) : 0.93
2) CCN(CCCCOc1ccc(C2CC(=O)c3c(O)cc(OCCCCN(CC)Cc4ccccc4OC)cc3O2)cc1)Cc1ccccc1OC (centres undefined) : 4.1
3) O=C(/C=C/c1ccc(OCCCCN2CCCC2)cc1)c1c(O)cc(OCCCCN2CCCC2)cc1O : 1.4
4) CCN(CCCCOc1ccc(-c2cc(=O)c3c(O)cc(OCCCCN(CC)Cc4ccccc4)cc3o2)cc1)Cc1ccccc1 : 2.6
5) O=c1cc(-c2ccc(OCCCCN3CCc4ccccc4C3)cc2)oc2cc(OCCCCN3CCc4ccccc4C3)cc(O)c12 : 0.96

Dear colleague, I am looking for the recorded Ratio IC50 of the following compound: O=c1c(-c2ccc(OCCCCN3CCC(Cc4ccccc4)CC3)cc2)coc2cc(OCCCCN3CCC(Cc4ccccc4)CC3)cc(O)c12 4.4

Input O=C(/C=C/c1ccc(OCCCCN2CCC(Cc3ccccc3)CC2)cc1)c1c(O)cc(OCCCCN2CCC(Cc3ccccc3)CC2)cc1O 2.8

Input O=c1c(-c2ccc(OCCCCN3CCc4ccccc4C3)cc2)coc2cc(OCCCCN3CCc4ccccc4C3)cc(O)c12 3.9

Input CCN(CCCCOc1ccc(/C=C/C(=O)c2c(O)cc(OCCCCN(CC)Cc3ccccc3OC)cc2O)cc1)Cc1ccccc1OC 13.4

Input O=C(/C=C/c1ccc(OCCCCN2CCCCC2)cc1)c1c(O)cc(OCCCCN2CCCCC2)cc1O 2

Input O=c1cc(-c2ccc(OCCCCN3CCC(Cc4ccccc4)CC3)cc2)oc2cc(OCCCCN3CCC(Cc4ccccc4)CC3)cc(O)c12 1.8

Input O=c1cc(-c2ccc(OCCCCN3CCN(Cc4ccccc4)CC3)cc2)oc2cc(OCCCCN3CCN(Cc4ccccc4)CC3)cc(O)c12 1.4

Input O=c1c(-c2ccc(OCCCCN3CCCCC3)cc2)coc2cc(OCCCCN3CCCCC3)cc(O)c12 4.2

Input CCN(CC)CCCCOc1ccc(/C=C/C(=O)c2c(O)cc(OCCCCN(CC)CC)cc2O)cc1 4.9

Source listed as ChEMBL document CHEMBL4765274.
